Measured values drawn from ChEMBL document CHEMBL5316337 for this set.

Tested on: Acinetobacter baumannii
Assay: Antibacterial activity against polymyxin-susceptible Acinetobacter baumannii ATCC 19606 clinical isolates assessed as reduction in bacterial growth by broth microdilution method
Format: functional
REPORTED ENDPOINT: log10 MIC (log10 of the value in µg/mL)
Please be aware that the numbers have been log10-transformed from MIC in µg/mL.

Please report log10 MIC for every entry that follows.
1. CC[C@H](C)CCCCC(=O)N[C@@H](CCN)C(=O)N[C@H](C(=O)N[C@@H](CCN)C(=O)N[C@H]1CCNC(=O)[C@H]([C@H](C)O)NC(=O)[C@H](CCN)NC(=O)[C@H](CCN)NC(=O)[C@H](CC(C)C)NC(=O)[C@@H](Cc2ccccc2)NC(=O)[C@H](CCN)NC1=O)[C@@H](C)O
2. C/C=C1/NC(=O)[C@H](CCN)NC(=O)[C@H](CCN)NC(=O)[C@H](CC(C)C)NC(=O)[C@@H](Cc2ccccc2)NC(=O)[C@H](CCN)NC(=O)[C@@H](NC(=O)[C@H](CCN)NC(=O)[C@@H](NC(=O)[C@H](CCN)NC(=O)CCCC[C@@H](C)CC)[C@@H](C)O)CCNC1=O
3. CC[C@H](C)CCCCC(=O)N[C@@H](CCN)C(=O)N[C@H](C(=O)N[C@@H](CCN)C(=O)N[C@H]1CCNC(=O)[C@H](Cc2c[nH]cn2)NC(=O)[C@H](CCN)NC(=O)[C@H](CCN)NC(=O)[C@H](CC(C)C)NC(=O)[C@@H](Cc2ccccc2)NC(=O)[C@H](CCN)NC1=O)[C@@H](C)O

[0.90, 0.60, 1.20]

Please report log10 MIC for every entry that follows.
1. CC[C@H](C)CCCCC(=O)N[C@@H](CCN)C(=O)N[C@H](C(=O)N[C@@H](CCN)C(=O)N[C@H]1CCNC(=O)[C@H](CCCCN)NC(=O)[C@H](CCN)NC(=O)[C@H](CCN)NC(=O)[C@H](CC(C)C)NC(=O)[C@@H](Cc2ccccc2)NC(=O)[C@H](CCN)NC1=O)[C@@H](C)O
2. CC[C@H](C)CCCCC(=O)N[C@@H](CCN)C(=O)N[C@H](C(=O)N[C@@H](CCN)C(=O)N[C@H]1CCNC(=O)[C@H](Cc2ccccc2)NC(=O)[C@H](CCN)NC(=O)[C@H](CCN)NC(=O)[C@H](CC(C)C)NC(=O)[C@@H](Cc2ccccc2)NC(=O)[C@H](CCN)NC1=O)[C@@H](C)O

1. 1.51
2. 0.30

====

Assignment: determine reported MIC for the given compounds.
Test system: Enterobacter cloacae
Assay: Antibacterial activity against polymyxin-susceptible Enterobacter cloacae FADD1-EC001 clinical isolates assessed as reduction in bacterial growth by broth microdilution method
Format: functional

CC[C@H](C)CCCCC(=O)N[C@@H](CCN)C(=O)N[C@H](C(=O)N[C@@H](CCN)C(=O)N[C@H]1CCNC(=O)[C@H](Cc2c[nH]cn2)NC(=O)[C@H](CCN)NC(=O)[C@H](CCN)NC(=O)[C@H](CC(C)C)NC(=O)[C@@H](Cc2ccccc2)NC(=O)[C@H](CCN)NC1=O)[C@@H](C)O; 32 µg/mL

Please report MIC for every entry that follows.
1. CC[C@H](C)CCCCC(=O)N[C@@H](CCN)C(=O)N[C@H](C(=O)N[C@@H](CCN)C(=O)N[C@H]1CCNC(=O)[C@@H]([C@H](C)O)NC(=O)[C@H](CCN)NC(=O)[C@H](CCN)NC(=O)[C@H](CC(C)C)NC(=O)[C@@H](Cc2ccccc2)NC(=O)[C@H](CCN)NC1=O)[C@@H](C)O
2. CC[C@H](C)CCCCC(=O)N[C@@H](CCN)C(=O)N[C@H](C(=O)N[C@@H](CCN)C(=O)N[C@H]1CCNC(=O)[C@H](CCN)NC(=O)[C@H](CCN)NC(=O)[C@H](CCN)NC(=O)[C@H](CC(C)C)NC(=O)[C@@H](Cc2ccccc2)NC(=O)[C@H](CCN)NC1=O)[C@@H](C)O

> 32 µg/mL
> 32 µg/mL
